Target: IRAK1 (Homo sapiens, UniProt P51617)
Construct: purchased Upstate, Millipore Bioscience Division (KinaseProfiler service)
Sequence (P51617 whole entry): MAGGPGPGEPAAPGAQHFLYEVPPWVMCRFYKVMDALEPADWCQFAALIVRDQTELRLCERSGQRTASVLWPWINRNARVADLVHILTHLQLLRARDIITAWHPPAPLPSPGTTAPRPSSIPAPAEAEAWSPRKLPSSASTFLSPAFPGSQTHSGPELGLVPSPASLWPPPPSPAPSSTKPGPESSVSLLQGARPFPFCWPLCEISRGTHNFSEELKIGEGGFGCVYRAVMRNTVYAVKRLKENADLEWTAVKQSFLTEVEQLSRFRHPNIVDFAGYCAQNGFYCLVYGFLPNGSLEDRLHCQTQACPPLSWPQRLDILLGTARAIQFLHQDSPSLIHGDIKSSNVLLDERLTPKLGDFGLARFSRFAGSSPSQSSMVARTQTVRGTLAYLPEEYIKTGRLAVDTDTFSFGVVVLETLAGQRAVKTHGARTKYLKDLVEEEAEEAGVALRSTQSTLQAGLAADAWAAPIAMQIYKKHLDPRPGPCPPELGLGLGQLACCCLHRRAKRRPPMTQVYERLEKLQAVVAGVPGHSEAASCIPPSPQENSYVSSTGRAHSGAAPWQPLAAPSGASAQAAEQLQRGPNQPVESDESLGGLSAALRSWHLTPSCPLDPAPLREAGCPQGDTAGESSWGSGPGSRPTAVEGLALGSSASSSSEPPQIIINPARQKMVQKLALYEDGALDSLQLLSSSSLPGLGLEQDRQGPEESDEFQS
Experiment: Kinase panel screen (KinaseProfiler), IRAK1
Format: biochemical
Settings: 1 μM test compound, 10 μM ATP; read-out: IRAK1 Percent inhibition, 1 μM
RECORDED_ENDPOINT: activity at 1 µM (%)
Numbers only, in %.

Examples with their reported activity at 1 µM follow.
[Q] Requested read-out: activity at 1 µM. Entry: NC(=O)Cn1ccc2cc(CN3CCC[C@@H](Nc4ccc5[nH]ncc5c4)C3)ccc21 [Compound 1.162]
[A] 100

[Q] Reported activity at 1 µM, compound NC(=O)Cn1ccc2cc(CN3CC[C@@H](Nc4cccc5cnccc45)C3)ccc21 [Compound 2.059] : ____
[A] 87

[Q] May I ask what activity at 1 µM has been recorded for Cc1ccc(CN2CCC[C@@H](Nc3ccc4[nH]ncc4c3)C2)cc1OCCO [Compound 1.161] ?
[A] 106

Please find the next compound below.
[Q] activity at 1 µM lookup needed for OCCn1ccc2cc(CN3CC[C@@H](Nc4cccc5cnccc45)C3)ccc21 [Compound 2.066] , thanks.
[A] 74

Where these numbers come from: patent US20090325959A1
